Target: Tubulin (Homo sapiens) (UniProt P68371+Q9H4B7+P0DPH7+P68366+Q13509+Q71U36+P04350+Q3ZCM7+P07437+P68363+Q9BQE3+Q6PEY2+Q13885+Q9BVA1+Q9BUF5)
Test: Inhibition of glycerol-induced tubulin polymerization relative to vinblastine
Format: functional
Conditions: concentration not given here
Result Type: inhibition
Kindly report the value followed by its unit.

QUERY: Given the compound CC[C@]1(O)CC2CN(CCc3c([nH]c4ccccc34)[C@@](C(=O)OC)(c3cc4c(cc3OC)N(C)[C@@H]3C45CCN4CC=C[C@](CC)([C@H]45)[C@@H](O)[C@@]3(O)C(=O)NCCCCCCn3c(=O)c(C)cn([C@@H]4C[C@@H](O)[C@H](COP(=O)(O)O)O4)c3=O)C2)C1 (stereo partly specified) , what is its reported inhibition?
RESULT: 97%

QUERY: I am curious: what inhibition value has been reported for CC[C@]1(O)CC2CN(CCc3c([nH]c4ccccc34)[C@@](C(=O)OC)(c3cc4c(cc3OC)N(C)[C@@H]3C45CCN4CC=C[C@](CC)([C@H]45)[C@@H](O)[C@@]3(O)C(=O)NCCOCCn3c(=O)c(C)cn([C@H]4C[C@H](O)[C@@H](CO)O4)c3=O)C2)C1 (stereo partly specified) ?
RESULT: 97%

QUERY: Requested field: inhibition. Item: CC[C@]1(O)CC2CN(CCc3c([nH]c4ccccc34)[C@@](C(=O)OC)(c3cc4c(cc3OC)N(C)[C@@H]3C45CCN4CC=C[C@](CC)([C@H]45)[C@@H](O)[C@@]3(O)C(=O)NCCCCCCn3c(=O)c(C)cn([C@@H]4C[C@@H](O)[C@H](CO)O4)c3=O)C2)C1 (stereo partly specified)
RESULT: 80%

QUERY: Need inhibition of CC[C@]1(O)CC2CN(CCc3c([nH]c4ccccc34)[C@@](C(=O)OC)(c3cc4c(cc3OC)N(C)[C@@H]3C45CCN4CC=C[C@](CC)([C@H]45)[C@@H](O)[C@@]3(O)C(=O)NCCCCCCn3c(=O)c(C)cn([C@@H]4C[C@H](O)[C@@H](CO)O4)c3=O)C2)C1 (stereo partly specified) , thanks.
RESULT: 93%

QUERY: Would you mind telling me what inhibition value was observed for CC[C@]1(O)CC2CN(CCc3c([nH]c4ccccc34)[C@@](C(=O)OC)(c3cc4c(cc3OC)N(C)[C@@H]3C45CCN4CC=C[C@](CC)([C@H]45)[C@@H](O)[C@@]3(O)C(=O)NCCCn3c(=O)c(C)cn([C@H]4C[C@H](O)[C@@H](CO)O4)c3=O)C2)C1 (stereo partly specified) ?
RESULT: 93%

QUERY: # input compound: CCC1(O)CC2CN(CCc3c([nH]c4ccccc34)[C@@](C(=O)OC)(c3cc4c(cc3OC)N(C)[C@@H]3C45CCN4CC=C[C@](CC)([C@H]45)[C@@H](O)[C@@]3(O)C(=O)NCCCCn3c(=O)c(C)cn([C@@H]4C[C@@H](O)[C@H](CO)O4)c3=O)C2)C1 (stereo partly specified) ; wanted: its inhibition
RESULT: 107%

----------
Molecular target: Thymidine kinase, cytosolic (Homo sapiens) (UniProt P04183)
Sequence (P04183 whole entry): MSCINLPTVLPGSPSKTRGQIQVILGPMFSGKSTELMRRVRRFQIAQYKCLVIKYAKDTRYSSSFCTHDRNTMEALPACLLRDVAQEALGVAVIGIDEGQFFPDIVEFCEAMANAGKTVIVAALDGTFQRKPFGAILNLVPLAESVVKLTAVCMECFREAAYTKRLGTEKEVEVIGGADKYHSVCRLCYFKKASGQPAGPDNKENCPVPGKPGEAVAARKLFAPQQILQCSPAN
Test: Activity against human TK1 assessed as thymidine phosphorylation relative to thymidine
Type: functional
Design: concentration or dose not given beside the values
For each entry below, report its Activity value.
Numbers only; they are read as %.

QUERY: May I ask what Activity has been recorded for CC(=O)O[C@H]1C(=O)C2(C)[C@@H](OC(=O)NCCCCCCn3c(=O)c(C)cn([C@H]4C[C@H](O)[C@@H](CO)O4)c3=O)C[C@H]3OC[C@@]3(OC(C)=O)[C@H]2[C@H](OC(=O)c2ccccc2)[C@]2(O)C[C@H](OC(=O)[C@H](O)[C@@H](NC(=O)c3ccccc3)c3ccccc3)C(C)=C1C2(C)C (some centres not stated) ?
RESULT: 26

QUERY: Any idea what Activity was measured for CC(=O)O[C@H]1C(=O)C2(C)[C@@H](OC(=O)NCCCCCCCCn3c(=O)c(C)cn([C@H]4C[C@H](O)[C@@H](CO)O4)c3=O)C[C@H]3OC[C@@]3(OC(C)=O)[C@H]2[C@H](OC(=O)c2ccccc2)[C@]2(O)C[C@H](OC(=O)[C@H](O)[C@@H](NC(=O)c3ccccc3)c3ccccc3)C(C)=C1C2(C)C (some centres not stated) ?
RESULT: 13

----------
Molecular target: Tubulin (Homo sapiens) (UniProt P68371+Q9H4B7+P0DPH7+P68366+Q13509+Q71U36+P04350+Q3ZCM7+P07437+P68363+Q9BQE3+Q6PEY2+Q13885+Q9BVA1+Q9BUF5)
Assay: Ability to promote tubulin polymerization relative to paclitaxel
Format: functional
Result Type: Activity (%)
Write down the numeric answer in % and omit the unit.

QUERY: Returns the measured Activity for the input compound. Input: CC(=O)O[C@H]1C(=O)C2(C)[C@@H](OC(=O)NCCCCCCn3c(=O)c(C)cn([C@H]4C[C@H](O)[C@@H](CO)O4)c3=O)C[C@H]3OC[C@@]3(OC(C)=O)[C@H]2[C@H](OC(=O)c2ccccc2)[C@]2(O)C[C@H](OC(=O)[C@H](O)[C@@H](NC(=O)c3ccccc3)c3ccccc3)C(C)=C1C2(C)C (stereo partly drawn)
RESULT: 83

QUERY: Give the measured Activity of CC(=O)O[C@@]12CO[C@@H]1C[C@H](O)C1(C)C(=O)[C@H](OC(=O)NCCOCCOCCn3c(=O)c(C)cn([C@H]4C[C@@H](O)[C@H](CO)O4)c3=O)C3=C(C)[C@@H](OC(=O)[C@H](O)[C@@H](NC(=O)c4ccccc4)c4ccccc4)C[C@@](O)([C@@H](OC(=O)c4ccccc4)[C@@H]12)C3(C)C (stereo partly drawn) .
RESULT: 89

QUERY: Can you share its Activity? I mean this compound: CC(=O)O[C@H]1C(=O)C2(C)[C@@H](OC(=O)NCCCCCCn3c(=O)c(C)cn([C@H]4C[C@@H](O)[C@H](CO)O4)c3=O)C[C@H]3OC[C@@]3(OC(C)=O)[C@H]2[C@H](OC(=O)c2ccccc2)[C@]2(O)C[C@H](OC(=O)[C@H](O)[C@@H](NC(=O)c3ccccc3)c3ccccc3)C(C)=C1C2(C)C (stereo partly drawn)
RESULT: 74

QUERY: Activity for CC(=O)O[C@@]12CO[C@@H]1C[C@H](O)C1(C)C(=O)[C@H](OC(=O)NCCOCCn3c(=O)c(C)cn([C@@H]4C[C@H](O)[C@@H](CO)O4)c3=O)C3=C(C)[C@@H](OC(=O)[C@H](O)[C@@H](NC(=O)c4ccccc4)c4ccccc4)C[C@@](O)([C@@H](OC(=O)c4ccccc4)[C@@H]12)C3(C)C (stereo partly drawn) ?
RESULT: 87

QUERY: Suppose we examine the compound CC(=O)O[C@@]12CO[C@@H]1C[C@H](O)C1(C)C(=O)[C@H](OC(=O)NCCOCCOCCn3c(=O)c(C)cn([C@@H]4C[C@@H](O)[C@H](CO)O4)c3=O)C3=C(C)[C@@H](OC(=O)[C@H](O)[C@@H](NC(=O)c4ccccc4)c4ccccc4)C[C@@](O)([C@@H](OC(=O)c4ccccc4)[C@@H]12)C3(C)C (stereo partly drawn) ; what Activity value has been reported?
RESULT: 91

QUERY: Any idea what its Activity is? The compound is CC(=O)O[C@H]1C(=O)C2(C)[C@@H](OC(=O)NCCCCCCn3c(=O)c(C)cn([C@@H]4C[C@@H](O)[C@H](COP(=O)(O)O)O4)c3=O)C[C@H]3OC[C@@]3(OC(C)=O)[C@H]2[C@H](OC(=O)c2ccccc2)[C@]2(O)C[C@H](OC(=O)[C@H](O)[C@@H](NC(=O)c3ccccc3)c3ccccc3)C(C)=C1C2(C)C (stereo partly drawn)
RESULT: 73

QUERY: I would be grateful if you could share the reported Activity for CC(=O)O[C@@]12CO[C@@H]1C[C@H](O)C1(C)C(=O)[C@H](OC(=O)NCCCCCn3c(=O)c(C)cn([C@H]4C[C@H](O)[C@@H](CO)O4)c3=O)C3=C(C)[C@@H](OC(=O)[C@H](O)[C@@H](NC(=O)c4ccccc4)c4ccccc4)C[C@@](O)([C@@H](OC(=O)c4ccccc4)[C@@H]12)C3(C)C (stereo partly drawn) .
RESULT: 86

QUERY: Value lookup for Activity; key = CC(=O)O[C@@]12CO[C@@H]1C[C@H](O)C1(C)C(=O)[C@H](OC(=O)NCCCn3c(=O)c(C)cn([C@H]4C[C@H](O)[C@@H](CO)O4)c3=O)C3=C(C)[C@@H](OC(=O)[C@H](O)[C@@H](NC(=O)c4ccccc4)c4ccccc4)C[C@@](O)([C@@H](OC(=O)c4ccccc4)[C@@H]12)C3(C)C (stereo partly drawn)
RESULT: 105

QUERY: Activity for CC(=O)O[C@@]12CO[C@@H]1C[C@H](O)C1(C)C(=O)[C@H](OC(=O)NCCCCCCn3c(=O)c(C)cn([C@H]4C[C@@H](O)[C@H](CO)O4)c3=O)C3=C(C)[C@@H](OC(=O)[C@H](O)[C@@H](NC(=O)c4ccccc4)c4ccccc4)C[C@@](O)([C@@H](OC(=O)c4ccccc4)[C@@H]12)C3(C)C (stereo partly drawn) ?
RESULT: 92

QUERY: Data request, read-out Activity, for CC(=O)O[C@H]1C(=O)C2(C)[C@@H](OC(=O)NCCCCn3c(=O)c(C)cn([C@@H]4C[C@@H](O)[C@H](CO)O4)c3=O)C[C@H]3OC[C@@]3(OC(C)=O)[C@H]2[C@H](OC(=O)c2ccccc2)[C@]2(O)C[C@H](OC(=O)[C@H](O)[C@@H](NC(=O)c3ccccc3)c3ccccc3)C(C)=C1C2(C)C (stereo partly drawn)
RESULT: 56

QUERY: Which Activity value is on record for CC(=O)O[C@@]12CO[C@@H]1C[C@H](O)C1(C)C(=O)[C@H](OC(=O)NCCOCCn3c(=O)c(C)cn([C@H]4C[C@H](O)[C@@H](CO)O4)c3=O)C3=C(C)[C@@H](OC(=O)[C@H](O)[C@@H](NC(=O)c4ccccc4)c4ccccc4)C[C@@](O)([C@@H](OC(=O)c4ccccc4)[C@@H]12)C3(C)C (stereo partly drawn) ?
RESULT: 102

QUERY: Entry under review: CC(=O)O[C@H]1C(=O)C2(C)[C@@H](OC(=O)NCCCCCCCCn3c(=O)c(C)cn([C@H]4C[C@H](O)[C@@H](CO)O4)c3=O)C[C@H]3OC[C@@]3(OC(C)=O)[C@H]2[C@H](OC(=O)c2ccccc2)[C@]2(O)C[C@H](OC(=O)[C@H](O)[C@@H](NC(=O)c3ccccc3)c3ccccc3)C(C)=C1C2(C)C (stereo partly drawn) . Reported Activity?
RESULT: 59

QUERY: Any idea what its Activity is? The compound is CC(=O)O[C@H]1C(=O)C2(C)[C@@H](OC(=O)NCCOCCOCCn3c(=O)c(C)cn([C@H]4C[C@H](O)[C@@H](CO)O4)c3=O)C[C@H]3OC[C@@]3(OC(C)=O)[C@H]2[C@H](OC(=O)c2ccccc2)[C@]2(O)C[C@H](OC(=O)[C@H](O)[C@@H](NC(=O)c3ccccc3)c3ccccc3)C(C)=C1C2(C)C (stereo partly drawn)
RESULT: 35

Provenance of the data: ChEMBL document CHEMBL1146914
